Tested on: HOP-18 NSCLC
Assay: NCI tumour cell line growth inhibition, 48 h
Observation type: TGI

INSERT INTO measurements (molecule, observation_type, measured_value) VALUES
  ('COc1ccc2[nH]c3c(c2c1)[C@H]1CCC(C(C)(C)C)C[C@H]1[C@H]1C(=O)N(c2ccccc2)C(=O)[C@@H]31 (some centres not stated)', 'TGI', '99.6 µM'),
  ('COc1ccc(C2Cc3cc(OC)c(OC)c(OC)c3C2)cc1 (configuration not stated)', 'TGI', '> 100 µM'),
  ('C1=CC2CCC1CN2CCC1CNc2ccccc21 (configuration not stated)', 'TGI', '> 100 µM'),
  ('O=C1C(=O)C2(CC1S(=O)(=O)c1ccccc1)c1ccccc1-c1ccccc12 (configuration not stated)', 'TGI', '> 10 µM'),
  ('Cc1ccc(OC(=O)N2C/C(=C\c3ccccc3)C(=O)/C(=C/c3ccccc3)C2)cc1', 'TGI', '> 91.2 µM'),
  ('CNC(=O)OCc1nc(SC)n(C)c1COC(=O)NC', 'TGI', '491 µM'),
  ('Cc1ccc(S(=O)C(C)C(Cl)c2ccccc2)cc1 (configuration not stated)', 'TGI', '> 100 µM');

###

Recorded measurements of TGI, one per entry
Tested on: SK-OV-3 ovarian
Test: NCI tumour cell line growth inhibition, 48 h
Observation type: TGI

INSERT INTO measurements (compound, assayed_target, observation_type, measured_value) VALUES
  ('CC[C@H]1OC(=O)[C@H](C)[C@@H](O[C@H]2C[C@@](C)(OC)[C@@H](O)[C@H](C)O2)[C@H](C)[C@@H](O[C@@H]2O[C@H](C)C[C@H](N(C)C)[C@H]2O)[C@](C)(OC)C/C(C)=C2/O[C@@]1(C)C=C2C', 'SK-OV-3 ovarian', 'TGI', '3.75 µM'),
  ('CN1CC[C@H](c2c(O)cc(O)c3c(=O)cc(-c4ccccc4Cl)oc23)[C@H](O)C1', 'SK-OV-3 ovarian', 'TGI', '> 10 µM'),
  ('COC(=O)C(=O)Nc1cc2c3c(c1)Oc1cccc4c1C3(C)c1c(cccc1O2)O4', 'SK-OV-3 ovarian', 'TGI', '> 100 µM'),
  ('C=CCN1CCC(c2cc(C(=O)OCC)[nH]c2-c2cc(C)no2)C1=O (centres undefined)', 'SK-OV-3 ovarian', 'TGI', '> 100 µM'),
  ('COC(=O)/C=C(\C)CCC1SC1(C)C (centres undefined)', 'SK-OV-3 ovarian', 'TGI', '> 100 µM'),
  ('CCn1c(-c2nonc2N)nc2cnc(Oc3cccc(NC(=O)c4ccc(N(C)C)cc4)c3)cc21', 'SK-OV-3 ovarian', 'TGI', '> 25 µM'),
  ('C/C(C=O)=C/[C@@]1(C)O[C@@H](C)[C@@](C)(O)[C@@H]1O', 'SK-OV-3 ovarian', 'TGI', '> 100 µM'),
  ('CSC1=Nc2c(c(C)c(-c3ccccc3)n2COC(CO)CO)C2=NC(=O)CC(C)N12 (centres undefined)', 'SK-OV-3 ovarian', 'TGI', '> 100 µM'),
  ('CNC(=O)OCc1nc(SC)n(C)c1COC(=O)NC', 'SK-OV-3 ovarian', 'TGI', '525 µM');

###

Test system: A498 renal
Experiment: NCI tumour cell line growth inhibition, 48 h; in the data active = GI50 below about 0.43 µM; inactive = the rest
Classes used: True (active), False (inactive)

INSERT INTO assay_data (compound, discrete_label) VALUES
  ('CCOC1Oc2ccc(C)cc2C(=O)/C1=C\Nc1ccc(S(N)(=O)=O)cc1 (stereo not given)', 'False'),
  ('CCOC(=O)c1c(CN2CCN(C)CC2)nc2ccc(Cl)cc2c1-c1ccccc1', 'False'),
  ('CCOC(=O)/C(=C\c1ccc2ccccc2c1)P(=O)(OCC)OCC', 'False'),
  ('O=[N+]([O-])/C=C/c1ccc(Cl)cc1[N+](=O)[O-]', 'False'),
  ('N#[N+]c1ccc(Nc2ccccc2)cc1', 'False'),
  ('Cc1cc(NN=C(c2ccc(O)cc2)c2ccc(O)cc2)c([N+](=O)[O-])cc1[N+](=O)[O-]', 'False'),
  ('CC1(C)N=C(N)N=C(N)N1c1cccc(CCc2ccccc2)c1', 'False'),
  ('O=CN1N=C(c2cccc(Nc3ccnc4cc(Cl)ccc34)c2)CC1c1ccc(Cl)cc1 (stereo not given)', 'False'),
  ('COc1ccc(-c2c(N)noc2-c2cc(OC)c3c(c2)OCCO3)cc1', 'True'),
  ('CCn1c(-c2nonc2N)nc2cnc(Oc3cccc(NC(=O)c4ccc(N(C)C)cc4)c3)cc21', 'False');
